The values you see were collected from PubChem BioAssay (NCI).

- Tested on: OVCAR-4 ovarian
- Assay: NCI tumour cell line growth inhibition, 48 h; in the data active = GI50 below about 0.43 µM; inactive = the rest
Classes used: Y for active, N for inactive

{"Compound": "Cc1ccnc2c1NC(=O)c1cccnc1N2C1CC1", "System": "OVCAR-4 ovarian", "Classification": "N"}
{"Compound": "N#Cc1cccc(Nc2nccc(-c3cnn4ncccc34)n2)c1", "System": "OVCAR-4 ovarian", "Classification": "Y"}
{"Compound": "CCOC(=O)c1c(C)c2c(n1C)CSc1cc(S(=O)(=O)c3ccccc3)c(=O)[nH]c1-2", "System": "OVCAR-4 ovarian", "Classification": "N"}
{"Compound": "O=[N+]([O-])c1ccc2nc(N/N=C/c3ccc(O)cc3)sc2c1", "System": "OVCAR-4 ovarian", "Classification": "N"}
{"Compound": "NC1=C(c2nc(-c3cc4ccccc4oc3=O)cs2)C(c2ccco2)c2c(c3ccccc3oc2=O)O1 (configuration not stated)", "System": "OVCAR-4 ovarian", "Classification": "N"}
{"Compound": "COc1cc(/C=C2\\C(=O)N(c3c(Cl)cccc3Cl)c3ccccc32)cc(OC)c1O", "System": "OVCAR-4 ovarian", "Classification": "N"}
{"Compound": "O=C(Oc1ccc([N+](=O)[O-])cc1)N1CCC(C(O)(c2ccc3c(c2)OCO3)c2ccc3c(c2)OCO3)CC1", "System": "OVCAR-4 ovarian", "Classification": "N"}

====

- Test system: OVCAR-4 ovarian
- Assay: NCI tumour cell line growth inhibition, 48 h
Each entry below lists one item and its recorded TGI value.

{"Compound": "Cc1oc2c(c1C(=O)c1ccccc1)C(=O)c1ccccc1C2=O", "System": "OVCAR-4 ovarian", "TGI": "9.95 µM"}
{"Compound": "CN/N=C(\\C)CC(=O)Nc1cccc(Cl)c1C", "System": "OVCAR-4 ovarian", "TGI": "> 100 µM"}
{"Compound": "O=C(O)[C@@H]1C[C@@H](O)CN1", "System": "OVCAR-4 ovarian", "TGI": "> 100 µM"}
{"Compound": "CC(C)CCNC(=O)c1ccc(CNC(=O)/C=C/c2ccc(-c3ccccc3[N+](=O)[O-])o2)cc1", "System": "OVCAR-4 ovarian", "TGI": "55.3 µM"}
{"Compound": "OCCOCCO[P+]1(OCCOCCO)n2c3ccc2C(c2ccccc2)=C2C=CC(=N2)C(c2ccccc2)=c2ccc(n21)=C(c1ccccc1)C1=NC(=C3c2ccccc2)C=C1", "System": "OVCAR-4 ovarian", "TGI": "1.05 µM"}
{"Compound": "COC(CNC(=O)C(C)NC(=O)C(C)NC(=O)c1ccccc1)OC (stereo not given)", "System": "OVCAR-4 ovarian", "TGI": "> 100 µM"}
{"Compound": "O=C(c1nsc(Cl)c1Cl)N1CCCCC1", "System": "OVCAR-4 ovarian", "TGI": "> 100 µM"}
{"Compound": "CN1c2ccccc2C2c3c(O)ccc(O)c3C=C([N+](=O)[O-])C21 (stereo not given)", "System": "OVCAR-4 ovarian", "TGI": "2.81 µM"}
{"Compound": "NC(C(=O)O)C(N)C(=O)O (stereo not given)", "System": "OVCAR-4 ovarian", "TGI": "> 100 µM"}
{"Compound": "CCOc1ccc(N=Cc2cc(OC)c(OC)c(OC)c2)cc1", "System": "OVCAR-4 ovarian", "TGI": "> 100 µM"}
{"Compound": "CC(=O)OC1CC(OC2C(O)CC(OC3C(O)CC(OC4CCC5(C)C(CCC6C5CC(O)C5(C)C(C7=CC(=O)OC7)CCC65O)C4)OC3C)OC2C)OC(C)C1O (stereo not given) (tested in a mixture with another compound)", "System": "OVCAR-4 ovarian", "TGI": "0.0538 µM"}
{"Compound": "c1ccc(-c2cc(-c3cc(-c4ccccn4)[nH]n3)n[nH]2)nc1", "System": "OVCAR-4 ovarian", "TGI": "> 100 µM"}
{"Compound": "COc1cc2c[n+](C)c3c4ccccc4ccc3c2cc1OC", "System": "OVCAR-4 ovarian", "TGI": "28.6 µM"}
{"Compound": "CCC12C=CCN3CC[C@]4(C(=C(C(=O)OC)[C@@H]1Nc1ccn(C5OC(COC(C)=O)C(OC(C)=O)C5OC(C)=O)c(=O)n1)Nc1ccccc14)C32 (stereo not given in full)", "System": "OVCAR-4 ovarian", "TGI": "3.57 µM"}
{"Compound": "CC1=CCC2(C#N)CCC1C2=O (stereo not given)", "System": "OVCAR-4 ovarian", "TGI": "> 100 µM"}
{"Compound": "O=C(N/N=C/c1cc2ccccc2c2ccccc12)c1cc(O)c(O)c(O)c1", "System": "OVCAR-4 ovarian", "TGI": "35.8 µM"}
{"Compound": "O=C1c2cccc3c(N4CCN(c5ccc6c7c(cccc57)C(=O)N(CCN5CCNCC5)C6=O)CC4)ccc(c23)C(=O)N1CCN1CCNCC1", "System": "OVCAR-4 ovarian", "TGI": "42.3 µM"}
{"Compound": "C=C1CC2(OC1=O)c1ccccc1CCc1ccccc12", "System": "OVCAR-4 ovarian", "TGI": "4.65 µM"}
{"Compound": "Cc1ccc(NC(=O)SCCC(=O)O)cc1NC(=O)SCCC(=O)O", "System": "OVCAR-4 ovarian", "TGI": "> 100 µM"}
{"Compound": "COc1ccc(OC)c(-c2nc3sccn3c2/C=C2/C(=O)Nc3ccccc32)c1", "System": "OVCAR-4 ovarian", "TGI": "> 38.7 µM"}
{"Compound": "O=C1CCC(=O)c2cc(Br)ccc2N1", "System": "OVCAR-4 ovarian", "TGI": "> 100 µM"}
{"Compound": "Cc1cccc(C)c1NC(=S)/N=C/C1=C(O)c2ccccc2C1=O", "System": "OVCAR-4 ovarian", "TGI": "> 65.4 µM"}
{"Compound": "C=CCSc1n[nH]c(-c2cccs2)n1", "System": "OVCAR-4 ovarian", "TGI": "> 100 µM"}
{"Compound": "Cc1cc(N2CCN(C)CC2)nc(NC2CCCC(Nc3ccnc4cc(Cl)ccc34)C2)n1 (stereo not given)", "System": "OVCAR-4 ovarian", "TGI": "6.24 µM"}
{"Compound": "C=CCC1(O)c2cccc(O)c2C(=O)c2c(O)cccc21", "System": "OVCAR-4 ovarian", "TGI": "> 100 µM"}
{"Compound": "COc1ccc(-c2c(N)[n+]([O-])c3cc(C)c(C)cc3[n+]2[O-])cc1OC", "System": "OVCAR-4 ovarian", "TGI": "> 100 µM"}
{"Compound": "O=c1cccc(C#CCCCCOC2CCCO2)o1 (stereo not given)", "System": "OVCAR-4 ovarian", "TGI": "> 60.1 µM"}
{"Compound": "COc1cc2c(cc1OC)-c1cc3ccccc3c(=O)n1CCC2", "System": "OVCAR-4 ovarian", "TGI": "> 100 µM"}
{"Compound": "COC1OC(C)C(OC(=O)C(C)(C)C)C(C)(O)C1O (stereo not given)", "System": "OVCAR-4 ovarian", "TGI": "> 100 µM"}
{"Compound": "C#C[C@]1(O)CC[C@H]2[C@@H]3CC=C4c5nc(Nc6ccc(OC)cc6OC)sc5CC[C@]4(C)[C@H]3CC[C@@]21C", "System": "OVCAR-4 ovarian", "TGI": "> 100 µM"}
{"Compound": "CC1CC2C3CC(F)C4=CC(=O)C=CC4(C)C3(F)C(O)CC2(C)C1(O)C(=O)CO (stereo not given)", "System": "OVCAR-4 ovarian", "TGI": "> 100 µM"}
{"Compound": "CC(C)(C)SC1=CCC[C@@H](P(=O)(c2ccccc2)c2ccccc2)[C@@H]2CCC[C@@H]12", "System": "OVCAR-4 ovarian", "TGI": "31.4 µM"}
{"Compound": "O=C(Oc1ccc([N+](=O)[O-])cc1)N1CCC(C(O)(c2ccc3c(c2)OCO3)c2ccc3c(c2)OCO3)CC1", "System": "OVCAR-4 ovarian", "TGI": "> 100 µM"}
{"Compound": "COC(=O)c1ccccc1CC1Cc2cc3c(cc2C1)CCC3", "System": "OVCAR-4 ovarian", "TGI": "> 100 µM"}
{"Compound": "CNC(=O)OCc1nc(S(C)=O)n(C)c1COC(=O)NC (stereo not given)", "System": "OVCAR-4 ovarian", "TGI": "> 71.6 µM"}
{"Compound": "CN(C)CC1(C)CC/C(=C\\c2ccc3c(c2)OCO3)C1=O (stereo not given)", "System": "OVCAR-4 ovarian", "TGI": "> 100 µM"}
{"Compound": "COc1cc(/C=C2\\C(=O)N(c3c(Cl)cccc3Cl)c3ccccc32)cc(OC)c1O", "System": "OVCAR-4 ovarian", "TGI": "12.1 µM"}
{"Compound": "N#Cc1c(NC(=O)CCC(=O)O)ccc2ccccc12", "System": "OVCAR-4 ovarian", "TGI": "> 100 µM"}
{"Compound": "C=C1CC(OC)(C(O)C(=O)N[C@H]2OCO[C@H]3C2O[C@H](C[C@@H](CO)OC)C(C)(C)C3OC)O[C@H](C)[C@@H]1C (stereo not given in full)", "System": "OVCAR-4 ovarian", "TGI": "< 0.00932 µM"}
{"Compound": "C[C@]12CC[C@H]3[C@@H](C[C@@H]4SC(Nc5cccc(F)c5)=N[C@@]45CC(=O)CC[C@]35C)[C@@H]1CCC2=O", "System": "OVCAR-4 ovarian", "TGI": "> 100 µM"}
